- Protocol: small-molecule microarray binders of probe aXIP, primary screen, biochemical, NeuroSMM set, 635/667 nm fluorescence (AID 1119);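 note: probe is the protein aXip251-270 applied at 1 µg/mL to compound-printed slides; binding of probe to printed compounds measured as 667 nm fluorescence plus signal to noise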
- Measurement parameters: higher = more signal, called active from +8 up or from −8 down
I would appreciate it if you labelled entries Satisfied when composite Z-score is 0.7 or higher, otherwise Not satisfied.

Compound	Assigned category
O=C1C[C@@](C(=O)NCCN2CCOCC2)(c2ccc([N+](=O)[O-])cc2)[C@@H](c2ccc(CO)cc2)N1CC12CC3CC(CC(C3)C1)C2	Not satisfied
CN(C)C(=O)[C@]1(Cc2ccccc2N=[N+]=[N-])N=C(c2ccc(OCCCO)cc2)O[C@@H]1c1ccccc1N=[N+]=[N-]	Not satisfied
COc1cc2c(cc1O)C(C1CC1)N(Cc1sc3ccccc3c1Cl)CC2 (stereo unspecified)	Not satisfied
COc1ccc(CCNC(=O)[C@@]2(C)c3ccccc3C(=O)N(C(C)C)[C@H]2c2ccc(CO)cc2)cc1	Satisfied
COCCOC(=O)N1C(=O)[C@@]2(c3cc(C#CCNC(N)=O)ccc31)[C@H](C(=O)N1CCN(c3ncccn3)CC1)[C@H]1C(=O)O[C@H](c3ccccc3)[C@H](c3ccccc3)N1[C@@H]2c1ccc(OCCO)cc1	Not satisfied

Ask | Confirm if composite Z-score reported for the compound `O=C1C[C@@](C(=O)NCC(F)(F)F)(c2ccc([N+](=O)[O-])cc2)[C@@H](c2ccc(CO)cc2I)N1C1CCCCC1` is 0.7 or above.
Reply | Not satisfied

Ask | Confirm if composite Z-score reported for the compound `CO[C@H]1O[C@H](CO)[C@@H](OC(=O)Nc2cccc(F)c2)[C@H](OC(=O)Nc2ccccc2)[C@@H]1OC(=O)Nc1ccccc1` is 0.7 or above.
Reply | Not satisfied

Ask | Confirm if composite Z-score reported for the compound `O=C(N1CCCCC1)[C@]1(Cc2ccccc2)N=C(c2ccc(OCCCO)cc2)O[C@@H]1c1ccccc1` is 0.7 or above.
Reply | Not satisfied

Ask | Confirm if composite Z-score reported for the compound C=CCC(OC(C)=O)[C@@H]1[C@@H](N(Cc2cccc3ccccc23)C(=O)c2ccc(-c3ccccc3)cc2)c2cc(OCCCO)ccc2N1C(=O)c1ccc2ccccc2c1 (stereo partly specified) is 0.7 or above.
Reply | Not satisfied

Ask | Confirm if composite Z-score reported for the compound `COc1cc(COC(C)=O)ccc1OC(C)=O` is 0.7 or above.
Reply | Not satisfied

Ask | Confirm if composite Z-score reported for the compound `COc1ccc(C#Cc2ccc3c(c2)[C@]2(C(=O)N3)[C@H](C(=O)NC[C@H](O)c3ccccc3)[C@H]3C(=O)O[C@H](c4ccccc4)[C@H](c4ccccc4)N3[C@@H]2c2ccc(O)cc2)cc1` is 0.7 or above.
Reply | Not satisfied

Ask | Confirm if composite Z-score reported for the compound O=C1C2C=CC(C(O)c3cccc4ccccc34)N(Nc3ccccc3F)C2C(=O)N1c1ccccc1 (stereo unspecified) is 0.7 or above.
Reply | Satisfied

Ask | Confirm if composite Z-score reported for the compound CN1C(=O)C2C=CC(C(O)c3ccccc3)N(N(c3ccccc3)c3ccccc3)C2C1=O (stereo unspecified) is 0.7 or above.
Reply | Not satisfied

Ask | Confirm if composite Z-score reported for the compound CCC(CC)C(O)C1C=CC2C(=O)NC(=O)C2N1Nc1ccc(Cl)cc1Cl (stereo unspecified) is 0.7 or above.
Reply | Satisfied

Ask | Confirm if composite Z-score reported for the compound `COC(=O)[C@@]1(Cc2ccc(OC)cc2)[C@H]2c3cc(C(=O)N(C)C)n(Cc4ccccn4)c3C[C@H]2CN1C(=O)c1ccccc1` is 0.7 or above.
Reply | Not satisfied
